system: HCT-8 host cells (Hs18S); details: primary screening at 10 uM, treated vs control
Where a name gives a salt, the structure may show the parent alone.
Would you kindly list Hs18S ΔCT for each of these molecules?
Numbers only.

Solved entries:
[
  {
    "Molecule": "N#C[C@H](O[C@@H]1O[C@H](CO[C@@H]2O[C@H](CO)[C@@H](O)[C@H](O)[C@H]2O)[C@@H](O)[C@H](O)[C@H]1O)c1ccccc1",
    "Hs18S ΔCT": 0.07
  },
  {
    "Molecule": "COC(=O)[C@@H]1C[C@H](OC(C)=O)C(=O)[C@H]2[C@@]1(C)CC[C@H]1C(=O)O[C@H](c3ccoc3)C[C@]21C [[…]]",
    "Hs18S ΔCT": 0.53
  },
  {
    "Molecule": "C=C(C)[C@@H]1CC[C@]2(C)CC[C@]3(C)[C@H](CC[C@@H]4[C@@]5(C)CC[C@H](O)C(C)(C)[C@@H]5CC[C@]43C)[C@@H]12",
    "Hs18S ΔCT": 0.05
  },
  {
    "Molecule": "COc1ccc(C(=O)/C=C/c2ccccc2)cc1",
    "Hs18S ΔCT": -0.16
  },
  {
    "Molecule": "COc1cc(O)c2c(=O)cc(-c3ccc(O)cc3)oc2c1",
    "Hs18S ΔCT": -0.83
  },
  {
    "Molecule": "O=c1c(O)c(-c2ccccc2)oc2cc(O)cc(O)c12",
    "Hs18S ΔCT": 0.39
  },
  {
    "Molecule": "CCOC(=O)C1C(C=C(C)C)C1(C)C (stereo not drawn)",
    "Hs18S ΔCT": -0.97
  },
  {
    "Molecule": "COc1cc(O)c2c(=O)c(OC)c(-c3ccc(OC)c(OC)c3)oc2c1",
    "Hs18S ΔCT": 0.27
  },
  {
    "Molecule": "Cc1c[nH]cn1",
    "Hs18S ΔCT": 0.18
  },
  {
    "Molecule": "CC1(C)C=Cc2cc3ccc(=O)oc3cc2O1",
    "Hs18S ΔCT": 0.12
  }
]

For each entry beneath this line, provide reported Hs18S ΔCT.
1. CC(=O)O[C@H]1CC[C@]2(C)C3=C(CC[C@H]2C1(C)C)[C@]1(C)CC[C@H]([C@H](C)CCC=C(C)C)[C@@]1(C)CC3 [LANOSTEROL ACETATE]
2. Cc1c(C)c2c(c(C)c1O)CCC(C)(CCCC(C)CCCC(C)CCCC(C)C)O2 (stereo not drawn)
3. CC1(C)CC[C@]2(C(=O)O)CC[C@]3(C)C(=CC[C@@H]4[C@@]5(C)CC[C@H](O)[C@@](C)(CO)[C@@H]5CC[C@]43C)[C@@H]2C1
4. CCCCCCCCCc1ccc(O)cc1

output:
[-0.04, 0.21, -0.11, 0.14]

For each entry beneath this line, provide reported Hs18S ΔCT.
1. CN1[C@@H]2C[C@@H](OC(=O)[C@H](CO)c3ccccc3)C[C@H]1[C@@H]1O[C@@H]12 [SCOPOLAMINE HYDROBROMIDE]
2. C=CCc1ccc2c(c1)OCO2
3. CC(=O)Oc1ccc(/C=C/c2cc(OC(C)=O)cc(OC(C)=O)c2)cc1
4. CC(=O)O[C@H]1CC[C@@]2(C)[C@H](CC[C@@H]3[C@@H]2CC[C@]2(C)[C@@H](C4=CC(=O)OC4)[C@@H](OC(C)=O)C[C@]32O)C1 [GITOXIGENIN DIACETATE]
5. O=C1CCC[C@@H]2[C@H]3C[C@@H](CN12)[C@@H]1CCCCN1C3.[O-][Cl+3]([O-])([O-])O [LUPANINE PERCHLORATE]
6. COc1cc2c3cc1Oc1cc(ccc1O)C[C@@H]1c4c(cc(OC)c(O)c4Oc4ccc(cc4)C[C@@H]3N(C)CC2)CC[N+]1(C)C.Cl.O.O.O.O.O.[Cl-] [TUBOCURARINE CHLORIDE]
7. C=C[C@H]1CN2CC[C@H]1C[C@H]2[C@H](O)c1ccnc2ccccc12

output:
[-0.37, -0.44, 0.19, 8.90, -0.09, -0.29, -0.20]

For each entry beneath this line, provide reported Hs18S ΔCT.
1. COc1cc(/C=C/C(=O)CC(=O)/C=C/c2ccc(O)c(OC)c2)ccc1O
2. O=C(O)c1cc(O)c(=O)c2c(O)c(O)c(O)cc2c1
3. C=C(C)[C@@H]1CC[C@]2(C(=O)O)CC[C@]3(C)[C@H](CC[C@@H]4[C@@]5(C)CC[C@H](O)C(C)(C)[C@@H]5CC[C@]43C)[C@@H]12

output:
1. 0.03
2. 0.11
3. -0.23

For each entry beneath this line, provide reported Hs18S ΔCT.
1. CC[C@@]1(O)C(=O)OCc2c1cc1n(c2=O)Cc2cc3ccccc3nc2-1
2. O=c1cc(-c2ccccc2)oc2cc(O)ccc12 [7-HYDROXYFLAVONE]
3. Cc1cc2nc3c(=O)[nH]c(=O)nc-3n(C[C@H](O)[C@H](O)[C@H](O)COP(=O)([O-])O)c2cc1C.[Na+] [RIBOFLAVIN 5-PHOSPHATE SODIUM]
4. C[C@@H]1CC[C@@]2(OC1)O[C@H]1C[C@H]3[C@@H]4CC[C@@H]5C[C@@H](O)CC[C@]5(C)[C@H]4CC[C@]3(C)[C@H]1[C@@H]2C
5. C=C(C)[C@H]1Cc2c(ccc3c2O[C@@H]2COc4cc(OC)c(OC)cc4[C@@H]2C3=O)O1

output:
1: 1.35; 2: 0.17; 3: -0.32; 4: 0.58; 5: 1.24

input: For O=C(O)CC[N+](=O)[O-] , what is its reported Hs18S ΔCT?
output: -0.32

----------
test system: HCT-8 host cells (Hs18S); settings: primary screening at 10 uM, treated vs control
Would you kindly list Hs18S ΔCT for each of these compounds?
Numbers only.

[
  {
    "Compound": "Cc1c(O)c(O)cc2c1CC=C1[C@@]2(C)CC[C@@]2(C)[C@@H]3C[C@](C)(C(=O)O)CC[C@]3(C)CC[C@]12C [DIHYDROCELASTROL]",
    "Target System": "HCT-8 host cells (Hs18S)",
    "Hs18S ΔCT": 1.27
  },
  {
    "Compound": "CC[C@@]1(O)C[C@H](O)c2c(cc3c(c2O)C(=O)c2c(O)ccc(O)c2C3=O)[C@H]1C(=O)OC [RUTILANTINONE]",
    "Target System": "HCT-8 host cells (Hs18S)",
    "Hs18S ΔCT": -0.54
  }
]

For each entry beneath this line, provide reported Hs18S ΔCT.
1. COc1cc2c(cc1OC)[C@@H]1C(=O)c3ccc(OC)c(CC=C(C)C)c3O[C@@H]1CO2
2. C=C(C)[C@H]1COc2cc3oc(=O)ccc3cc2O1
3. CC1(C)C2CC(=O)[C@]3(C)C(CC[C@@]4(C)[C@H](c5ccoc5)OC(=O)[C@H]5O[C@]543)[C@@]2(C)C(=O)C[C@H]1O (stereo partly shown)
4. COc1ccc(-c2oc3cc(OC)c(OC)c(OC)c3c(=O)c2OC)cc1OC
5. O=C(O)[C@H](O)[C@@H](O)[C@H](O[C@@H]1O[C@H](CO)[C@H](O)[C@H](O)[C@H]1O)[C@H](O)CO

output:
0.30
-0.33
-0.10
1.01
-0.35

----------
Would you kindly list cytotoxicity at 10 µM for each of these compounds?
assay: in vitro
Structures can show the parent of a compound that is named as a salt.
Numbers only, in %.

Solved entries:
[
  {
    "Compound": "C[C@@H]1C(=O)O[C@H]2C[C@@]34[C@H]5C[C@@H](C(C)(C)C)[C@]36[C@@H](OC(=O)[C@@H]6O)O[C@@]4(C(=O)O5)[C@]21O [GINKGOLIDE A]",
    "cytotoxicity at 10 µM (%)": 6.6
  },
  {
    "Compound": "O=c1cc(-c2ccccc2)oc2cc(O)ccc12 [7-HYDROXYFLAVONE]",
    "cytotoxicity at 10 µM (%)": 10.8
  },
  {
    "Compound": "N=C(N)NCCCCN [AGMATINE SULFATE]",
    "cytotoxicity at 10 µM (%)": 13.5
  },
  {
    "Compound": "COC1=C[C@@H]2[C@@H]3Cc4ccc(OC)c(O)c4[C@]2(CCN3C)CC1=O",
    "cytotoxicity at 10 µM (%)": -71.8
  },
  {
    "Compound": "C[C@H]1[C@H](C)CC[C@]2(C(=O)O)CC[C@]3(C)C(=CC[C@@H]4[C@@]5(C)C[C@@H](O)[C@H](O)[C@@](C)(CO)[C@@H]5[C@H](O)C[C@]43C)[C@H]12",
    "cytotoxicity at 10 µM (%)": -11.7
  },
  {
    "Compound": "O=C1C=C2C=C[C@@H]3C[C@@]2(O1)[C@H]1CCCCN31",
    "cytotoxicity at 10 µM (%)": 3.6
  }
]

input: For CC1(C)C(=O)C=C[C@]2(C)[C@H]3CC[C@@]4(C)[C@H](c5ccoc5)OC(=O)[C@H]5O[C@]54[C@]3(C)C(=O)C[C@@H]12 , what is its reported cytotoxicity at 10 µM?
output: 23.6
